- System: Zika virus NS2B-NS3 protease (linked construct)
- measurement-description: Primary screen NINDS Rhodamine qHTS for Zika virus inhibitors (AID 1347160); note: nearly all actives have a fitted effect of over 55% in size
- setup-conditions: purified NS2B-NS3 protease, Rhodamine110 substrate fluorescence; series mostly up to 57.1 µM
Results filed as inconclusive are left out. The source made the active and inactive calls. Calls come from the whole dose curve; as a rule, active = well fitted inhibition curve with a large enough effect; inconclusive = small, poorly fitted or top-dose-only effect; inactive = no such curve, though single readings can be large or run the other way.
Classes to choose from: active, inactive

[[record]]
compound = "CC1=C2C(O)C(=O)OC(c3ccoc3)C2(C)CCC1O (stereo not drawn)"
test_target = "Zika virus NS2B-NS3 protease (linked construct)"
class_assignment = "inactive"

[[record]]
compound = "CS(=O)(=O)NCC1CCC(Nc2nc3c(s2)CCSc2ccccc2-3)CC1 (stereo not drawn)"
test_target = "Zika virus NS2B-NS3 protease (linked construct)"
class_assignment = "inactive"

[[record]]
compound = "COC(=O)N1CCC(n2ncc3c(N4CCOCC4)nc(-c4ccc(NC(=O)Nc5ccc(CO)cc5)cc4)nc32)CC1"
test_target = "Zika virus NS2B-NS3 protease (linked construct)"
class_assignment = "inactive"

[[record]]
compound = "COC(=O)c1cc(OC)cc(OC)c1C(=O)c1c(OC)cc2c(c1O)C1CCCC(C)(O2)O1 (stereo not drawn)"
test_target = "Zika virus NS2B-NS3 protease (linked construct)"
class_assignment = "inactive"

[[record]]
compound = "CC1(C)CC[C@]2(C(=O)O[C@@H]3O[C@H](CO)[C@@H](O)[C@H](O)[C@H]3O)CC[C@]3(C)C(=CCC4[C@@]5(C)CC[C@H](O[C@@H]6O[C@H](C(=O)O)[C@@H](O)[C@H](O)[C@H]6O)[C@@](C)(CO)C5CC[C@]43C)C2C1 (stereo partly drawn)"
test_target = "Zika virus NS2B-NS3 protease (linked construct)"
class_assignment = "inactive"


Record lookup: outcome of this test for NC(=O)c1csc(C2OC(CO)C(O)C2O)n1 (stereo not drawn) ?
inactive

What outcome does the record of this test show for CC(CO)C1CCC2(C)CC3C(CO)CC(O)C3C(C)(O)C/C=C/12 (stereo not drawn) ?
inactive

Short answer needed: outcome of this test for `Cc1ccc(-c2c(C(=O)CF)n(CCCO)c3ncnc(N)c23)cc1` ?
inactive

// return assay outcome for `CC(C)(C)NCCCNC(=O)c1cccc(Br)c1`
inactive

Answer briefly: the call reported for O=C1NC(Cc2c[nH]c3ccccc23)C(=O)NC1Cc1cnc[nH]1 (stereo not drawn) in this assay.
inactive

Give the logged outcome of this assay for the following compound: `O=C(OC[C@H]1O[C@H](O[C@]2(CO)O[C@H](CO)[C@@H](O)[C@@H]2O)[C@H](O)[C@@H](O)[C@@H]1O)c1ccccc1`
inactive

Each compound tested received a call. Report the one for `CCOC(=O)Nc1cc(-c2ccc(C)c(NS(C)(=O)=O)c2)nn2c(C)nnc12` .
inactive

# fetch the recorded call for `Cc1[nH]c2ccccc2c1CCNC(=O)c1ccccc1F` here
inactive

Per the records of this test, what outcome belongs to CCC(C)C(=O)OC1CC(O)C23C4OCC5(C(O)CC2C1(C)C(O)O4)C3C(=O)C(O)C1(C)C(O)(c2ccoc2)CC2OC251 (stereo not drawn) ?
inactive

Fill in: this test's call for `Nc1ccc(/C=C/C(=O)NCc2cc3cc(-c4ccc(C(=O)N5CCC(F)(F)CC5)cc4)cc(-c4ccc(F)cc4)c3o2)cn1` is ___
inactive

Which outcome did this test record for the compound `Cc1cc(C(=O)Nc2cccc(C(=O)Nc3cccc(C(F)(F)F)c3)c2)on1` ?
inactive

Given `COc1cc(Nc2nc3ccccc3nc2NS(=O)(=O)c2ccc(NC(=O)c3ccc(OC)c(C)c3)cc2)cc(OC)c1` , state the outcome it received in this test.
active

Check the results log: what was the call for C=C1CCC2C(C)(C)CCC[C@]2(C)[C@H]1C/C=C(\CO)C(=O)C(=O)O (stereo partly drawn) ?
inactive
